- System: Fibroblast
- EXPERIMENTAL DETAILS: Multiplex assay against human fibroblast
- Format: toxicity, cell-based
- DETAILS: 12 h, 1 µM, compound concentration 1 uM, replicate 1
READOUT KIND: Population Healthy Nuclei (%)
The response must be a number in % with no trailing unit.

(Q) Give recorded Population Healthy Nuclei (%). Nc1ccc(C(=O)Nc2cccc(-c3nc(N4CCOCC4)c4oc5ncccc5c4n3)c2)cn1
(A) 43

(Q) Read off the recorded Population Healthy Nuclei (%) for c1ccc2oc(-c3csc(C4CCN(Cc5nc6ncccc6[nH]5)CC4)n3)cc2c1
(A) 55

(Q) Could you please provide reported Population Healthy Nuclei (%) for Cc1nc(Cc2cccc(C(F)(F)F)c2)sc1-c1ccc(C(N)=O)nc1 [TP-024n] ? Thanks!
(A) 45

(Q) Recall and state the measured Population Healthy Nuclei (%) for Cc1cn(-c2cc(NC(=O)c3ccc4c(c3)CN(c3cncnc3)C[C@@H]4C)cc(C(F)(F)F)c2)cn1 .
(A) 50

(Q) For the compound CCOc1cc2ncc(C#N)c(Nc3ccc(OCc4cccc(F)c4)c(Cl)c3)c2cc1NC(=O)/C=C/CN(C)C , give its reported Population Healthy Nuclei (%).
(A) 60

(Q) Return value of Population Healthy Nuclei (%) for input CC(C)N1CCC(C)(C)c2cc(C#Cc3ccc(C(=O)O)cc3)ccc21 , no commentary.
(A) 41

(Q) Quickly give me recorded Population Healthy Nuclei (%) for Cl.Cl.NC1(c2ccc(-c3nc4ccn5c(=O)[nH]nc5c4cc3-c3ccccc3)cc2)CCC1
(A) 48

(Q) Give recorded Population Healthy Nuclei (%). CCn1c(-c2nonc2N)nc2cnc(Oc3cccc(NC(=O)c4ccc(OCCN5CCOCC5)cc4)c3)cc21 [GSK-269962A]
(A) 36

---

- Tested on: HEK-293T
- EXPERIMENTAL DETAILS: Multiplex assay against HEK293T
- Assay type: toxicity, cell-based
- DETAILS: human, 24 h, 10 µM, compound concentration 10 uM, replicate 2
READOUT KIND: Population Membrane Permeable-Phenotype (%)
Report only the number, with the unit % understood.

(Q) Please give the documented Population Membrane Permeable-Phenotype (%) of Cc1c(Oc2ccc(F)cc2)c(OC(C)C)nn1-c1ccc(C2CC2)cn1 [IPP/CNRS-A019]
(A) 2

(Q) Tell me Population Membrane Permeable-Phenotype (%) reported for N#Cc1cnc(Nc2cc(NC[C@H]3CNCCO3)c(C(F)(F)F)cn2)cn1 [SRA-737]
(A) 7

(Q) // Input: CNc1oc(-c2cccc3ccccc23)nc1C#N . Output its Population Membrane Permeable-Phenotype (%) only.
(A) 4

(Q) Tell me measured Population Membrane Permeable-Phenotype (%) for Cc1cn(-c2cc(NC(=O)c3ccc4c(c3)CN(c3cncnc3)C[C@@H]4C)cc(C(F)(F)F)c2)cn1 please.
(A) 14

(Q) Look up and state reported Population Membrane Permeable-Phenotype (%) for Cl.Cl.Nc1ncnc2c1c(-c1cccc(OCc3ccccc3)c1)cn2[C@H]1C[C@@H](CN2CCC2)C1
(A) 5

---

- System: HEK-293T
- EXPERIMENTAL DETAILS: Multiplex assay against HEK293T
- Type: toxicity, cell-based
- DETAILS: human, 12 h, 10 µM, compound concentration 10 uM, replicate 2
# Population Mitochondria Different-Phenotype (%) binned as bottom (below 20%), middle (20% to below 60%), top (60% or more)

(Q) Categorize the following entry: c1ccc2oc(-c3csc(C4CCN(Cc5nc6ncccc6[nH]5)CC4)n3)cc2c1
(A) bottom

(Q) Lab log: CC(C)(C)c1cnc(CSc2cnc(NC(=O)C3CCNCC3)s2)o1 — assign Population Mitochondria Different-Phenotype (%) category
(A) middle

(Q) Lab note: sort CC(C)N1CCC(C)(C)c2cc(C#Cc3ccc(C(=O)O)cc3)ccc21 into the matching Population Mitochondria Different-Phenotype (%) band.
(A) bottom

(Q) Which Population Mitochondria Different-Phenotype (%) category applies to CN(C)C/C=C/C(=O)Nc1cc2c(Nc3ccc(F)c(Cl)c3)ncnc2cc1O[C@H]1CCOC1.O=C(O)/C=C\C(=O)O.O=C(O)/C=C\C(=O)O [AFATINIB DIMALEATE] here?
(A) top

(Q) Hey, which category is CCOc1cc2ncc(C#N)c(Nc3ccc(OCc4cccc(F)c4)c(Cl)c3)c2cc1NC(=O)/C=C/CN(C)C in, do you know?
(A) middle

(Q) Looking at Cc1c(Oc2ccc(F)cc2)c(OC(C)C)nn1-c1ccc(C2CC2)cn1 , which class would you pick?
(A) bottom

(Q) Dear colleague, I would appreciate it if you could identify the bin for CCc1cc2c(cc1CC)CC(NC[C@H](O)c1ccc(O)c3[nH]c(=O)ccc13)C2 and reply at your convenience.
(A) top

(Q) Lab note: which band did COc1cc2c(Nc3ccc(NC(=O)c4ccccc4)cc3)ncnc2cc1OCCCN1CCOCC1 land in?
(A) bottom

(Q) Into which category would you place CNc1oc(-c2cccc3ccccc23)nc1C#N ?
(A) bottom

(Q) Tag the class for COc1cc2c(NC3CCN(C(C)C)CC3)nc(N3CCC(F)(F)CC3)nc2cc1OCCCN1CCCC1
(A) top

(Q) Kindly state the category for this molecule: Cl.Cl.Nc1ncnc2c1c(-c1cccc(OCc3ccccc3)c1)cn2[C@H]1C[C@@H](CN2CCC2)C1
(A) top

(Q) Field: class (Population Mitochondria Different-Phenotype (%)) — entry: Cc1cn(-c2cc(NC(=O)c3ccc4c(c3)CN(c3cncnc3)C[C@@H]4C)cc(C(F)(F)F)c2)cn1
(A) middle

(Q) Bin? CC(=O)O[C@H]1C(=O)[C@@]2(C)[C@H]([C@H](OC(=O)c3ccccc3)[C@]3(O)C[C@H](OC(=O)[C@H](O)[C@@H](NC(=O)c4ccccc4)c4ccccc4)C(C)=C1C3(C)C)[C@]1(OC(C)=O)CO[C@@H]1C[C@@H]2O
(A) bottom

(Q) Hi, small favor: classify COc1ccc(NS(=O)(=O)c2sc3ccc(Cl)cc3c2C)cc1N1CCNCC1.Cl by its Population Mitochondria Different-Phenotype (%) when you get a moment.
(A) top

(Q) Any idea which band CC(=O)c1cc(-c2cc(C(=O)NC3CC3)ccc2C)c2ncccn12 is in?
(A) middle

(Q) Form field 'band' for Cl.Cl.NC1(c2ccc(-c3nc4ccn5c(=O)[nH]nc5c4cc3-c3ccccc3)cc2)CCC1
(A) middle

(Q) Field: class (Population Mitochondria Different-Phenotype (%)) — entry: Cc1nc(Cc2cccc(C(F)(F)F)c2)sc1-c1ccc(C(N)=O)nc1 [TP-024n]
(A) top

---

- Tested on: Fibroblast
- EXPERIMENTAL DETAILS: Multiplex assay against human fibroblast
- Format: toxicity, cell-based
- DETAILS: 24 h, 1 µM, compound concentration 1 uM, replicate 2
For each entry below, report its Population Tubulin-Different-Phenotype (%) value.
Please state the figure in %; there is no need to write the unit.

(Q) Specify reported Population Tubulin-Different-Phenotype (%) for the compound shown: COc1ccc(NS(=O)(=O)c2sc3ccc(Cl)cc3c2C)cc1N1CCNCC1.Cl
(A) 5

(Q) Tell me its Population Tubulin-Different-Phenotype (%) given Cc1cn(-c2cc(NC(=O)c3ccc4c(c3)CN(c3cncnc3)C[C@@H]4C)cc(C(F)(F)F)c2)cn1 as the entry.
(A) 17

(Q) Indicate its recorded Population Tubulin-Different-Phenotype (%); the compound in question is CC(C)Oc1ccc(C(=O)N[C@H](CNC(=O)CN(C)C)Cc2ccc(-c3cn4cccc([C@H](C)O)c4n3)cc2)cc1Cl [GSK-923295A]
(A) 25

(Q) Entry CCn1c(-c2nonc2N)nc2cnc(Oc3cccc(NC(=O)c4ccc(OCCN5CCOCC5)cc4)c3)cc21 [GSK-269962A] needs its Population Tubulin-Different-Phenotype (%) filled in; supply it.
(A) 14

(Q) Answer with the recorded Population Tubulin-Different-Phenotype (%) for the compound listed here: Nc1nc2c(c(N3CCNCC3)n1)CCC1=C2[C@@H]2CCCC[C@@H]2O1
(A) 16

(Q) Respond only with Population Tubulin-Different-Phenotype (%) recorded for CCC(=O)O[C@]1(C(=O)SCF)[C@H](C)C[C@H]2[C@@H]3C[C@H](F)C4=CC(=O)C=C[C@]4(C)[C@@]3(F)[C@@H](O)C[C@@]21C [FLUTICASONE PROPIONATE]
(A) 20

(Q) Indicate the recorded Population Tubulin-Different-Phenotype (%) value for this compound: Cc1nc(Cc2cccc(C(F)(F)F)c2)sc1-c1ccc(C(N)=O)nc1 [TP-024n]
(A) 15

---

- Tested on: Fibroblast
- EXPERIMENTAL DETAILS: Multiplex assay against human fibroblast
- Assay type: toxicity, cell-based
- DETAILS: 12 h, 10 µM, compound concentration 10 uM, replicate 1
Tag: condition met if measured Population Healthy Nuclei (%) is not below 50%, condition not met if it is.

(Q) Record c1ccc2oc(-c3csc(C4CCN(Cc5nc6ncccc6[nH]5)CC4)n3)cc2c1 ; criterion: Population Healthy Nuclei (%) no lower than 50%. Met?
(A) condition met

(Q) Please check the record N#Cc1cnc(Nc2cc(NC[C@H]3CNCCO3)c(C(F)(F)F)cn2)cn1 and state if its Population Healthy Nuclei (%) is at or above 50%.
(A) condition met

(Q) Test whether the compound CNC(=O)c1cc(Oc2ccc(NC(=O)Nc3cc(C(C)(C)C)nn3-c3ccc4ncccc4c3)c(F)c2)ccn1 records Population Healthy Nuclei (%) of 50% or higher.
(A) condition met

(Q) Check if Population Healthy Nuclei (%) >= 50% (inclusive). Item: Cl.Cl.Nc1ncnc2c1c(-c1cccc(OCc3ccccc3)c1)cn2[C@H]1C[C@@H](CN2CCC2)C1
(A) condition not met

(Q) Dear colleague, could you confirm whether CNc1oc(-c2cccc3ccccc23)nc1C#N has Population Healthy Nuclei (%) at or above 50%?
(A) condition not met

(Q) Check this compound for Population Healthy Nuclei (%) at or above 50%: Nc1nc2c(c(N3CCNCC3)n1)CCC1=C2[C@@H]2CCCC[C@@H]2O1
(A) condition not met
